The measurements presented in this section are drawn from patent US20240158373A1.

# EXPERIMENT NOTES: Tissue distribution test in rats (after Ritonavir)
# Type: in vivo, SD male rats
# TEST CONTEXT: rat, po, 30 mg/kg, 30 mpk intragastric, with Ritonavir, plasma, 6 h, read-out: Plasma concentration at 6 h
# Excerpt: In this study, SD male rats were selected as test animals, and the drug concentrations of test compounds in plasma and lungs of rats at different time points were quantitatively measured by LC/MS/MS method to evaluate the pharmacokinetic characteristics of test drugs in rats. […]
QUANTITY: concentration at 6 h (µM)
Only the number, expressed in µM, is required.

State the recorded concentration at 6 h for this entry: CC(C)(C)[C@H](NC(=O)C(F)(F)F)C(=O)N1[C@H]2C[C@@H]([C@H]1C(=O)N[C@H](C#N)C[C@@H]1CCNC1=O)C1(CC1)C2 4.88
